target: T1, human CD71 extracellular domain (human, UniProt P02786 89-760); assay: primary ELISA; also: test concentration or dose not given here
T1 construct: also called hCD71; human CD71-ECD
T1 sequence (P02786 89-760): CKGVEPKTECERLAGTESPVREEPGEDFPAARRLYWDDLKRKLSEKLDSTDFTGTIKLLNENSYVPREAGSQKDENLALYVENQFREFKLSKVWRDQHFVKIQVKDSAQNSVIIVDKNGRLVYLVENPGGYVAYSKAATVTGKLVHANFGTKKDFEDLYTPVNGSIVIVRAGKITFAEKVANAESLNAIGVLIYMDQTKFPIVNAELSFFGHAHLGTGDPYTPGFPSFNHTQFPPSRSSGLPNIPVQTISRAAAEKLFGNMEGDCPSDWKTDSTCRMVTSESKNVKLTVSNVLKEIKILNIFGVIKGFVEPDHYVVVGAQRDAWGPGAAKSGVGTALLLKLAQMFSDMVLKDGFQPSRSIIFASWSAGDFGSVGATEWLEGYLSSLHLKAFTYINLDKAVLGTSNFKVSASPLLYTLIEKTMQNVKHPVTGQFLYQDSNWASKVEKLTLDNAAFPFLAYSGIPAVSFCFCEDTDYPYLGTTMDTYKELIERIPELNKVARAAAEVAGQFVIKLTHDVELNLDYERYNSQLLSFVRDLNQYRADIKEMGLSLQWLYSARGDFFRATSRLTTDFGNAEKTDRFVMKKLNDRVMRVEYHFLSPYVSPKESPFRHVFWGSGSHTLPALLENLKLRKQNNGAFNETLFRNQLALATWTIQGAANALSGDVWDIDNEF
assay.endpoint: RLU (RLU)
Express it in RLU; write the number only.

# RLU (binder: CD71-binding FN3 domain of SEQ ID NO: 136 (designed binder) MSLPAPKNLVVSRVTEDSARLSWTAPDAAFDSFEIDYVEFIFTGEAIGLIVPGSERSYDLTGLKPGTEYWVTIAGVKGGEWSTPLQAFLTT ) is 4.08e+06

# RLU (binder: CD71-binding FN3 domain of SEQ ID NO: 181 (designed binder) MSLPAPKNLVVSRVTEDSARLSWTAPDAAFDSFEIGYFENDYFGEAIVLTVPGSERSYDLTGLKPGTEYWVQIGGVKGGNWSAPLSAIFTT ) is 2.84e+06

# RLU (binder: CD71-binding FN3 domain of SEQ ID NO: 145 (designed binder) MSLPAPKNLVVSRVTEDSARLSWTAPDAAFDSFFIGYLEPQPPGEAIALLVPGSERSYDLTGLKPGTEYNVTIQGVKGGFPSHPLSAKFTT ) is 5.14e+06

# RLU (binder: CD71-binding FN3 domain of SEQ ID NO: 167 (designed binder) MSLPAPKNLVVSRVTEDSARLSWTAPDAAFDSFFIGYLEPQPPGEAIVLTVPGSERSYDLTGLKPGTEYNVTIQGVKGGFPSVPLSAAFTT ) is 4.72e+06
